All figures here come from ChEMBL document CHEMBL1149197.

Test system: HUVEC
protocolDescription: Anti-proliferative activity against human umbilical vein endothelial cells (HUVECs)
Assay type: functional
experimentalContext: Homo sapiens, HUVEC
# note: exactly 1000 nM is not below, so it is not met; use met for GI50 strictly under it

structure | cat
COc1cc(NC(=O)/C=C/c2cc(OC)c(OC)c(OC)c2)ccc1NC(=O)[C@@H](O)[C@H](N)CCc1ccccc1 | met
COc1cc(/C=C/C(=O)Nc2ccc(NC(=O)[C@@H](O)[C@H](N)CCc3ccccc3)c(C)c2)cc(OC)c1OC | not met
COc1cc(/C=C/C(=O)Nc2ccc(NC(=O)[C@@H](O)[C@H](N)CC3CCCCC3)cc2C)cc(OC)c1OC | not met
COc1cc(/C=C/C(=O)Nc2ccc(NC(=O)[C@@H](O)[C@H](N)CCc3ccccc3)cc2)cc(OC)c1OC | met
CCOc1ccc(/C=C/C(=O)Nc2ccc(NC(=O)[C@@H](O)[C@H](N)CCc3ccccc3)cc2)cc1 | not met
COc1cc(NC(=O)[C@@H](O)[C@H](N)CC2CCCCC2)ccc1NC(=O)/C=C/c1cc(OC)c(OC)c(OC)c1 | not met
COc1cc(/C=C/C(=O)Nc2ccc(NC(=O)[C@@H](O)[C@H](N)CCC3CCCCC3)cc2)cc(OC)c1OC | met
